# key: entry, value: growth inhibition
Assay: inhibition of 3D7 malaria parasite growth – strain 3D7 (AID 2306);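 note: 0% = DMSO wells and 100% = chloroquine plus artemisinin control wells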
Conditions: P. falciparum 3D7 erythrocytic growth, LDH absorbance, 72 h; at 2 µM; stronger effect = higher value

[
  {
    "Molecule": "COc1ccc2nccc([C@@H](O)CN3CCC(NCc4cc5ccccc5cn4)CC3)c2n1",
    "growth inhibition / %": 93
  },
  {
    "Molecule": "COc1ccnc(NCCCNCc2cn(S(=O)(=O)c3ccccc3)c3ccccc23)c1",
    "growth inhibition / %": 99
  },
  {
    "Molecule": "COc1ccc(-c2ccc(NC(=O)c3ccc(C#N)cc3)cc2)cc1CN(C)CCN(C)C",
    "growth inhibition / %": 96
  },
  {
    "Molecule": "O=C(NCCCCCN1CCC(c2c[nH]c3ccccc23)CC1)c1ccc(-c2cccnc2)cc1",
    "growth inhibition / %": 89
  },
  {
    "Molecule": "COc1cc(OC)c2c(c1Cl)O[C@]1(C2=O)C(=O)C(Cc2ccccc2)(Cc2ccccc2)C(=O)C[C@H]1C",
    "growth inhibition / %": 90
  }
]

----------
Molecular target: L-lactate dehydrogenase (Plasmodium falciparum (isolate CDC / Honduras)) (UniProt Q27743)
Sequence (Q27743 whole entry, looked up): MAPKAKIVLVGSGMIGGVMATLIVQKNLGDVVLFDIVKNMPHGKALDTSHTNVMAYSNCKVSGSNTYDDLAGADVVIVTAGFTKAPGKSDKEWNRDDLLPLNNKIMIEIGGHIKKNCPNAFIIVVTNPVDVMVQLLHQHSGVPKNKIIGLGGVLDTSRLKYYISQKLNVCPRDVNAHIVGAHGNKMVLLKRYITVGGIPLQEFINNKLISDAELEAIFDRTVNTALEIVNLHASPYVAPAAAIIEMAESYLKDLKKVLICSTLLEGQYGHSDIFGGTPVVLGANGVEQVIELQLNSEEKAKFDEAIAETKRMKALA
Assay: PfLDH activity inhibition – cell lysate, 3D7 strain, counter-screen for P. falciparum growth inhibition project (AID 2304);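 note: 0% = vehicle and 100% = reference inhibitor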
Settings: P. falciparum 3D7 crude extract, LDH APAD/NBT absorbance; at 2 µM; stronger effect = higher value
# key: entry, value: inhibition

[
  {
    "Compound": "COc1ccc(-c2nc(NC(=O)CSc3ccccc3)sc2C)cc1",
    "Target System": "L-lactate dehydrogenase (Plasmodium falciparum (isolate CDC / Honduras)) (UniProt Q27743)",
    "inhibition (%)": 2
  },
  {
    "Compound": "Cc1ccc2c(=O)cc(CCc3cccc(F)c3F)n(CC(=O)N(Cc3ccc(-c4ccc(C(F)(F)F)cc4)cc3)C3CCN(C)CC3)c2n1",
    "Target System": "L-lactate dehydrogenase (Plasmodium falciparum (isolate CDC / Honduras)) (UniProt Q27743)",
    "inhibition (%)": 0
  },
  {
    "Compound": "Clc1ccc(C=NNc2ccnc3ccccc23)cc1",
    "Target System": "L-lactate dehydrogenase (Plasmodium falciparum (isolate CDC / Honduras)) (UniProt Q27743)",
    "inhibition (%)": 1
  },
  {
    "Compound": "CC1CCCC(NC(=O)CCOc2ccccc2)C1 (stereo unspecified)",
    "Target System": "L-lactate dehydrogenase (Plasmodium falciparum (isolate CDC / Honduras)) (UniProt Q27743)",
    "inhibition (%)": -2
  },
  {
    "Compound": "CCCCOc1c(CNCCCCCCNCc2ccc3ccccc3c2OCCCC)ccc2ccccc12",
    "Target System": "L-lactate dehydrogenase (Plasmodium falciparum (isolate CDC / Honduras)) (UniProt Q27743)",
    "inhibition (%)": 7
  },
  {
    "Compound": "O=c1cc(NCCCNCc2cc3ccc(Br)cc3s2)[nH]c2ccccc12",
    "Target System": "L-lactate dehydrogenase (Plasmodium falciparum (isolate CDC / Honduras)) (UniProt Q27743)",
    "inhibition (%)": -2
  },
  {
    "Compound": "CS(=O)(=O)Nc1cccc(-c2cnc3[nH]cc(-c4ccc(CCC(=O)O)cc4)c3c2)c1",
    "Target System": "L-lactate dehydrogenase (Plasmodium falciparum (isolate CDC / Honduras)) (UniProt Q27743)",
    "inhibition (%)": 2
  },
  {
    "Compound": "CCOc1ccccc1CCNC(C)Cc1ccc(C(=O)Nc2ccc(CC(C)NCCc3cccc(Cl)c3)cc2)cc1 (stereo unspecified)",
    "Target System": "L-lactate dehydrogenase (Plasmodium falciparum (isolate CDC / Honduras)) (UniProt Q27743)",
    "inhibition (%)": -3
  },
  {
    "Compound": "CN1CCN(C(=O)CN2CCC3(CCC2=O)NC(=O)c2ccccc2O3)CC1 (stereo unspecified)",
    "Target System": "L-lactate dehydrogenase (Plasmodium falciparum (isolate CDC / Honduras)) (UniProt Q27743)",
    "inhibition (%)": 2
  },
  {
    "Compound": "COc1ccc2c(NN=Cc3ccccc3)ccnc2c1",
    "Target System": "L-lactate dehydrogenase (Plasmodium falciparum (isolate CDC / Honduras)) (UniProt Q27743)",
    "inhibition (%)": -5
  },
  {
    "Compound": "Cc1nc(N)nc(N)c1CCCOc1ccccc1Cl",
    "Target System": "L-lactate dehydrogenase (Plasmodium falciparum (isolate CDC / Honduras)) (UniProt Q27743)",
    "inhibition (%)": -1
  },
  {
    "Compound": "O=C(/C=C/c1ccccc1Cl)Nc1ccc(Br)c(OCCN2CCC(O)(c3ccccc3)CC2)c1",
    "Target System": "L-lactate dehydrogenase (Plasmodium falciparum (isolate CDC / Honduras)) (UniProt Q27743)",
    "inhibition (%)": 0
  },
  {
    "Compound": "COc1cc(C(=O)N2CCOC(CCN3CCc4c(c5ccccc5n4C)C3)(c3ccc(Cl)c(Cl)c3)C2)cc(OC)c1OC (stereo unspecified)",
    "Target System": "L-lactate dehydrogenase (Plasmodium falciparum (isolate CDC / Honduras)) (UniProt Q27743)",
    "inhibition (%)": -4
  },
  {
    "Compound": "Fc1ccc(Nc2ccnc3cc(-c4cccc(CNCCN5CCOCC5)c4)ccc23)c(Cl)c1",
    "Target System": "L-lactate dehydrogenase (Plasmodium falciparum (isolate CDC / Honduras)) (UniProt Q27743)",
    "inhibition (%)": -1
  },
  {
    "Compound": "CCOc1ccc2c(NN=Cc3cc(OC)c(OC)cc3OC)cc(C)nc2c1",
    "Target System": "L-lactate dehydrogenase (Plasmodium falciparum (isolate CDC / Honduras)) (UniProt Q27743)",
    "inhibition (%)": 4
  },
  {
    "Compound": "COc1ccc2c(NN=Cc3ccccc3Cl)cc(C)nc2c1",
    "Target System": "L-lactate dehydrogenase (Plasmodium falciparum (isolate CDC / Honduras)) (UniProt Q27743)",
    "inhibition (%)": 2
  },
  {
    "Compound": "Cc1cccc2[nH]c(-c3ccc(-c4ccc(CN5CCN(c6cnccn6)CC5)cc4)s3)nc12",
    "Target System": "L-lactate dehydrogenase (Plasmodium falciparum (isolate CDC / Honduras)) (UniProt Q27743)",
    "inhibition (%)": -6
  },
  {
    "Compound": "CCc1c(CCNCCCCCCNCCc2ccc(OC)c(OC)c2CC)ccc(OC)c1OC",
    "Target System": "L-lactate dehydrogenase (Plasmodium falciparum (isolate CDC / Honduras)) (UniProt Q27743)",
    "inhibition (%)": 0
  },
  {
    "Compound": "CCc1nc2c(cnn2CC)c(NC2CCOCC2)c1CNC(=O)c1ccoc1C",
    "Target System": "L-lactate dehydrogenase (Plasmodium falciparum (isolate CDC / Honduras)) (UniProt Q27743)",
    "inhibition (%)": 2
  },
  {
    "Compound": "NCc1ccc(-c2cccc(CNC3CCN(Cc4ccccc4)CC3)c2)cc1",
    "Target System": "L-lactate dehydrogenase (Plasmodium falciparum (isolate CDC / Honduras)) (UniProt Q27743)",
    "inhibition (%)": -7
  },
  {
    "Compound": "O=C(/C=C/c1ccc(Cl)c(Cl)c1)NCCCCCN1CCC(c2c[nH]c3c(-c4ccccc4)cccc23)CC1",
    "Target System": "L-lactate dehydrogenase (Plasmodium falciparum (isolate CDC / Honduras)) (UniProt Q27743)",
    "inhibition (%)": -2
  }
]
